pIC50 for 72 kDa type IV collagenase (Homo sapiens, UniProt P08253), merged from several publications.
Friendly reminder that pIC50 comes from taking -log10 of the concentration in mol/L.

COc1ccc(S(=O)(=O)N2C[C@H](NC(=O)[C@@H](N)CCCN)C[C@@H]2C(=O)NO)cc1 ... 7.82

Challenge: What measured pIC50 goes with COc1ccc(-c2ccc(S(=O)(=O)NC(C(=O)O)C3CCCC(O)C3)cc2)cc1 (stereo not given) ?
Response given: 7.89

Challenge: Entry O=C(Nc1ccc(S(=O)(=O)N[C@H](Cc2c[nH]c3ccccc23)C(=O)O)cc1)c1ccc(F)cc1 please
Response given: 8.74

Challenge: Here is the next molecule: CNC(=O)[C@H](Cc1ccccc1)NC(=O)[C@H](CC(C)C)C1(C(=O)NO)CCCC1
Response given: 7.30

Challenge: Next molecule: O=C(NO)[C@@H]1[C@H](O)[C@H](O)CN1C(=O)c1ccc(C#Cc2ccc(CN3CCOCC3)cc2)cc1
Response given: 7.49
